Source of measurements: PubChem BioAssay AID624401

- TESTED TARGET: Aryl hydrocarbon receptor (Homo sapiens)
- TEST PROTOCOL: AhR reporter activation, late-stage follow-up, counter-screen for AHR activator project, luminescence, HG2L7.5c1 cells, set 2 (AID 624401)
- CONDITION: HG2L7.5c1 HepG2 DRE-luciferase reporter, 24 h; at 10 µM
Active and inactive are the calls of the source.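 Rule for the calls: active = activation of 20% or more; inactive = activation below 20%, including negative responses.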
Outcomes you can answer with include only these: true (active), false (inactive)

For orientation, consider the following solved cases.
# SMILES STRING, CLASS LABEL
measured = [
    ("O=C(CSc1nc(-c2ccc(F)cc2)cs1)Nc1ccccn1", "false"),
    ("CCOc1ccccc1NC(=O)c1ccc(C(=O)Nc2ccccc2OCC)nc1", "true"),
    ("COc1ccc(Nc2cc(Cl)nc(N)n2)cc1OC", "false"),
    ("Cc1cccc(NC(=O)c2cc(-c3ccc(C)cc3O)n[nH]2)c1", "false"),
]

Okay, next one:
Exercise: # fetch the recorded call for Cc1ccc(NC(=O)c2ccc(C(=O)Nc3ccc(C)cc3C)nc2)c(C)c1 here
Key: false

----------
- TESTED TARGET: Aryl hydrocarbon receptor (Homo sapiens) (UniProt P35869)
- Sequence (P35869 whole entry, looked up): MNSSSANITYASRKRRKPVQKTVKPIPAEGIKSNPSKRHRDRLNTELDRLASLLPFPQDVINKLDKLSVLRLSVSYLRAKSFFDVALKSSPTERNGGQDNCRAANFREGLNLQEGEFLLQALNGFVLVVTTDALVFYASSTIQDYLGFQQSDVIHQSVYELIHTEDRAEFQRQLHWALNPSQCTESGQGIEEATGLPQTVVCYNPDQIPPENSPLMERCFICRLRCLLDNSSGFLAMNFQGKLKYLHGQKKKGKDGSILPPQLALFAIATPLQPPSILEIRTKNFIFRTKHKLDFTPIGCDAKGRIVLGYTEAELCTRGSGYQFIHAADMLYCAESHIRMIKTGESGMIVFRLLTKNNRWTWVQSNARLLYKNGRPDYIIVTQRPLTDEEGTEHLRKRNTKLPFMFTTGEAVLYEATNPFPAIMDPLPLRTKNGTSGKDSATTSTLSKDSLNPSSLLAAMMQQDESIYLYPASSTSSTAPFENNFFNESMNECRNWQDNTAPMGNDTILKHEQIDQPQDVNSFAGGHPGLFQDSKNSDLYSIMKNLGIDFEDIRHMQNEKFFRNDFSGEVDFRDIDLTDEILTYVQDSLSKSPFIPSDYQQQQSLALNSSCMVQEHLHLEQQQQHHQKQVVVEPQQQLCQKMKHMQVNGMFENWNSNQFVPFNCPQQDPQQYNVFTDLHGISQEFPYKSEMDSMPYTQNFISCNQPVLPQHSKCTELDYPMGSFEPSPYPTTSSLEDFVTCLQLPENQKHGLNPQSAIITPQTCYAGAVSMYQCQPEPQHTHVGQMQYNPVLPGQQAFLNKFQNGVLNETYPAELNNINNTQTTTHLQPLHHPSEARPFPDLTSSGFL
- TEST PROTOCOL: AhR reporter activation, late-stage follow-up, counter-screen for AHR activator project, luminescence, HG2L7.5c1 cells, set 2 (AID 624401)
- CONDITION: HG2L7.5c1 HepG2 DRE-luciferase reporter, 24 h; at 10 µM; stronger effect = higher value
The source made the active and inactive calls.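 The calls were made as follows: active = activation of 20% or more; inactive = activation below 20%, including negative responses.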
READOUT NAME: activation

Illustrative cases are given below, each with its answer.
# SMILES STRING, activation
measured = [
    ("COc1ccc(NC(=O)c2ccc(C(=O)Nc3ccc(OC)cc3OC)nc2)c(OC)c1", "inactive"),
    ("Cc1ccnc(NC(=O)CSc2nc3ccccc3s2)c1", "inactive"),
    ("COc1ccc(-c2cc(-c3ccc(C)cc3O)[nH]n2)cc1", "15.6%"),
    ("Cc1cccc(C)c1NC(=O)c1ccc(C(=O)Nc2c(C)cccc2C)nc1", "inactive"),
    ("CN(Cc1cc(-c2cccs2)n[nH]1)Cc1coc2ccccc2c1=O", "inactive"),
]

Exercise: Requested field: activation. Item: Nc1nc(Cl)cc(Nc2ccc(Oc3ccccc3)cc2)n1
Key: 25.2%

Exercise: Please do the same for Cc1cc(Br)cc(C)c1Nc1ccnc(Nc2ccc(C#N)cc2)n1 as well.
Key: inactive

Exercise: Now give it for O=C(CSc1nc2ccccc2s1)Nc1ccc(Cl)cn1 too.
Key: inactive

Exercise: Do the same for Cc1csc(SCC(=O)Nc2ccccn2)n1 please
Key: inactive

Exercise: Same read-out for COc1ccc(O)c(-c2cc(-c3cccs3)[nH]n2)c1 ?
Key: inactive

Exercise: # repeat for COc1ccc(Nc2cc(Cl)nc(N)n2)cc1
Key: inactive

Exercise: Next record, please: O=C(CSc1nc2ccccc2s1)Nc1ccccn1
Key: 18.9%

----------
- TESTED TARGET: Aryl hydrocarbon receptor (Homo sapiens)
- TEST PROTOCOL: AhR reporter activation, late-stage follow-up, counter-screen for AHR activator project, luminescence, HG2L7.5c1 cells, set 2 (AID 624401)
- CONDITION: HG2L7.5c1 HepG2 DRE-luciferase reporter, 24 h; at 10 µM
Calls of active or inactive are those of the source.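 The calls were made as follows: active = activation of 20% or more; inactive = activation below 20%, including negative responses.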
Select the matching outcome among label 1 = active, label 0 = inactive

Take a look at these entries with their results.
# SMILES STRING, CLASS LABEL
records = [
    ("COc1ccc(Cl)cc1NC(=O)c1ccc(C(=O)Nc2cc(Cl)ccc2OC)nc1", "label 0"),
    ("CCOC(=O)c1c(C)nn(-c2cc(Cl)ccc2Cl)c1C", "label 0"),
    ("Nc1nc(Cl)cc(Nc2ccccc2F)n1", "label 0"),
    ("Cc1cc(Nc2ccc(F)cc2)nc(N)n1", "label 0"),
]

Exercise: Which outcome was assigned to Cc1ccc(O)c(-c2cc(-c3ccccc3Cl)[nH]n2)c1 in this test?
Key: label 1
